Assay: qHTS of pediatric cancer cell lines to identify multiple opportunities for drug repurposing: Primary screen for SJ-GBM2 cells (AID 1347091)
Settings: SJ-GBM2 viability, CellTiter-Glo luminescence, 48 h; series mostly up to 46 µM
Records with an inconclusive call do not appear. Active and inactive are the calls of the source. Calls follow the shape of the dose curve; as a rule, active = well fitted cell-killing curve with a large enough effect; inconclusive = small, poorly fitted or top-dose-only effect; inactive = no such curve, though single readings can be large or run the other way.
Labels: active, inactive

{"Smiles structure": "CC[C@H](CC[C@@H](C)[C@H]1CC[C@H]2[C@@H]3CC=C4C[C@@H](O)CC[C@]4(C)[C@@H]3CC[C@]12C)C(C)C", "Class name": "inactive"}
{"Smiles structure": "CCCCOc1ccc(C(=O)Nc2ccc(F)cc2F)cc1", "Class name": "inactive"}
{"Smiles structure": "CC(C)(N)c1ccc(-c2nc3ccccc3nc2-c2ccccc2)cc1", "Class name": "active"}
{"Smiles structure": "COC1=C(OC)C(=O)C(CC=C(C)CCC=C(C)CCC=C(C)CCC=C(C)CCC=C(C)CCC=C(C)CCC=C(C)CCC=C(C)CCC=C(C)CCC=C(C)C)=C(C)C1=O", "Class name": "inactive"}
{"Smiles structure": "CNC(=O)c1ccc(Nc2cc(Nc3ccccc3S(=O)(=O)C(C)C)c3cc[nH]c3n2)nc1", "Class name": "active"}
{"Smiles structure": "C[C@H](NC(=O)Cc1cc(F)cc(F)c1)C(=O)N[C@H](C(=O)OC(C)(C)C)c1ccccc1", "Class name": "inactive"}
{"Smiles structure": "Cn1c(Nc2ccc(C(F)(F)F)cc2)nc2cc(Oc3ccnc(-c4ncc(C(F)(F)F)[nH]4)c3)ccc21", "Class name": "active"}
{"Smiles structure": "COc1cc(C(=O)NC2CCN(C)CC2)ccc1Nc1ncc2c(n1)N(C1CCCC1)CCC(=O)N2C(C)C", "Class name": "active"}

Data origin: PubChem BioAssay (NCATS)
